Origin of measurements: ChEMBL document CHEMBL1201862

System: ACHN
method description: NCI tumour cell line growth inhibition, 48 h
The source made the active and inactive calls. Cut-off read from the data, not from the text of the source: active = GI50 up to about 1.1 µM and inactive = higher.
Reported GI50 values are given for each entry in this list.

CNc1ncnc2c1cnn2Cc1cn(CCCCO)nn1; > 100 µM (inactive)

O=C1C2Nc3ccccc3SC2C(=O)N1c1ccc(Br)cc1 (stereo not drawn) has a reported GI50 of 17.6 µM (inactive)

Summary for this molecule, O=C(NC(Cc1c[nH]cn1)C(=O)N1CCCC1)C1CCCC1 (stereo not drawn) : GI50 is > 100 µM (inactive)

What the record says about C/C(=C\c1ccc(Cl)cc1)C(C)(C)C(=O)O : GI50 is > 100 µM (inactive)

GI50 recorded for this molecule, O=C1CSC(c2ccccc2)N1c1ccc(-c2ccc(-n3c(-c4ccccc4)nc4ccccc4c3=O)cc2)cc1 (stereo not drawn) , is 53 µM (inactive)

COc1ccc(CNc2nc(NC3CCCCC3)nc(NC3CCCCC3)n2)cc1 yielded GI50 of 5.35 µM (inactive)

----------
Tested on: OVCAR-4
method description: NCI tumour cell line growth inhibition, 48 h
The source made the active and inactive calls. Cut-off read from the data, not from the text of the source: active = GI50 up to about 1.1 µM and inactive = higher.
Classes to choose from: active, inactive

Reference set (8 entries):
COc1ccc(-c2nnc3c4ccccc4sn23)cc1; inactive
Clc1ncc(C(Cl)(Cl)Cl)nc1-c1ccccc1; inactive
COC(=O)C1CSC(c2csc(CCN)n2)=N1 (centres undefined); inactive
O=[N+]([O-])c1cccc2nc3ccccc3c(NCCC[N+]3([O-])CCCCC3)c12; active
C(=C\c1cccc(/C=C/c2ccccn2)n1)/c1ccccn1; inactive
C[C@H]1S[C@H](c2c(F)cccc2F)n2c1nc1ccccc12; inactive
Cc1cc(O)c2c(c1)C(O)(c1ccc3c(c1O)C(=O)c1c(O)cc(C)cc1C3(O)C1OC(CO)C(O)C(O)C1O)c1cccc(O)c1C2=O (centres undefined); inactive
CC[C@@H](O)C[C@H]1CCC[C@@]2(C[C@@H]3OC(=O)/C=C/[C@@](C)(O)[C@@H](O)[C@H](C)[C@@H](O)[C@H](OC4CCC(N(C)C)C(C)O4)[C@@H](O)[C@](C)(O)CCCCC/C=C/[C@@H]4CC(C)(C)O[C@@]4(O)C[C@H](O2)[C@H]3C)O1 (some centres undefined); inactive

Entry N#CC(NC12CC3CC(CC(C3)C1)C2)c1ccccc1 (centres undefined) : call = ?
inactive

Call for entry C/C(=C\c1ccc(Cl)cc1)C(C)(C)C(=O)O :
inactive

Which result was noted for this molecule in the test: CC(C)(C)C1=CC(O)(c2c3ccccc3c(C3(O)C=C(C(C)(C)C)C(=O)C(C(C)(C)C)=C3)c3ccccc23)C=C(C(C)(C)C)C1=O
inactive

----------
Test system: SF-268
method description: NCI tumour cell line growth inhibition, 48 h
The source made the active and inactive calls. Rule as the data show it: active = GI50 up to about 1.1 µM and inactive = higher.
measure name: GI50

These solved cases illustrate the format of a correct answer.
CC(O)CNC(=O)Nc1c(C(F)(F)F)cc(-c2ccccc2)[nH]c1=O (stereo not given); > 100 µM (inactive)
CCOC(=O)C(CC#Cc1ccc(C#CCC(NC(C)=O)C(=O)OCC)cc1)NC(C)=O (stereo not given); > 100 µM (inactive)
c1ccc(/N=C(\N2CCOCC2)N(CCN2CCOCC2)c2ccccc2)cc1; > 100 µM (inactive)
O=C(COc1ccc(OCC(=O)N2C(=O)CC(=O)N(c3ccc(Cl)cc3)C2=S)cc1)N1C(=O)CC(=O)N(c2ccc(Cl)cc2)C1=S; 40.4 µM (inactive)
C/C(CC(=O)Nc1ccc(Cl)c(Cl)c1)=N/NC(=O)C[n+]1ccccc1; > 100 µM (inactive)

Entry under test: O=c1c2cc(-c3ccccc3)cnc2sn1-c1ccc([N+](=O)[O-])cc1 . Its GI50 was 48.2 µM (inactive)

The molecule O=C(O)c1ccc([N+](=O)[O-])c2c(=O)c3ccccc3[nH]c12 showed GI50 equal to > 100 µM (inactive)

Sample COc1ccc(C2ON(c3ccccc3)CC=C2C)cc1 (stereo not given) ; GI50 observed: > 100 µM (inactive)

For reference, reported GI50 for COc1ccc(C2C3=C(COC3=O)Oc3cc4c(cc32)OCO4)cc1OC (stereo not given) stands at 6.17 µM (inactive)

# GI50 of Oc1cccc2cc(Br)cnc12 = 2.33 µM (inactive)

----------
System: HOP-92
method description: NCI tumour cell line growth inhibition, 48 h
Activity calls are given as the source filed them. Cut-off read from the data, not from the text of the source: active = GI50 up to about 1.1 µM and inactive = higher.
measure name: GI50

Worked examples follow.
COc1cc2c[n+]3ccc4cc(OC)c(OC)cc4c3cc2cc1O; > 100 µM (inactive)
N#CC1(C#N)C(c2ccccc2)C=CC12OCCCO2 (stereo not given); 30.5 µM (inactive)
C/C(CC(=O)Nc1ccc(Cl)c(Cl)c1)=N/NC(=O)C[n+]1ccccc1; > 100 µM (inactive)

Noted for O=C(Nc1ccc(C2=NCCN2)cc1)c1cncc(C(=O)Nc2ccc(C3=NCCN3)cc2)c1 : its GI50 reads > 100 µM (inactive)

For record CCOC(=O)c1cc(C)nc2c1c(=O)n(-c1ccccc1)c(=O)n2CCCCN1CCN(c2ncccn2)CC1 the listed GI50 is 34.6 µM (inactive)

----------
System: OVCAR-3
method description: NCI tumour cell line growth inhibition, 48 h
Active and inactive are the calls of the source. Rule as the data show it: active = GI50 up to about 1.1 µM and inactive = higher.
Each entry below carries its recorded GI50.

Consider the worked cases shown below.
Cn1c(=O)c2c(no[n+]2[O-])c2ccccc21; 22.1 µM (inactive)
COc1cc(-c2oc3c(OC)c(O)c(OC)c(O)c3c(=O)c2OC)cc(OC)c1OC; 31.6 µM (inactive)
COc1cc2c(cc1OC)-c1c(cc(OC)c(OC)c1OC)C2=O; > 100 µM (inactive)
CCCC(=O)OC[n+]1ccc2c(C)c3[nH]c4ccc(OC)cc4c3c(C)c2c1; 0.873 µM (active)
COc1cc2c(cc1OC)C1c3ccccc3CCN1CC2 (stereo not given); > 100 µM (inactive)
N#Cc1c(-c2ccc(Cl)cc2)cc(-c2ccc(Nc3ccnc4cc(Cl)ccc34)cc2)[nH]c1=O; > 100 µM (inactive)
N#CC1C(=O)Nc2sc(C(=O)c3ccc(Br)cc3)c(N)c2C12CCCCC2 (stereo not given); 9.66 µM (inactive)
COc1ccc(C=O)cc1Oc1ccc(C[C@H]2c3c(cc(OC)c4c3Oc3cc5c(cc3O4)CCN(C)C5=O)CCN2C)cc1; 8.43 µM (inactive)
C[N+]12C=CC=C1C(N1CCCC1)c1scc(-c3ccccc3)c12 (stereo not given); 7.83 µM (inactive)
CN1CCN(c2ccc3nc(C4=C(O)C(=O)c5c(nc(CCl)n5C)C4=O)[nH]c3n2)CC1; 10.4 µM (inactive)

GI50 in this record for CC(=O)OC1COC(N2C(=O)C(=O)c3cc(Br)c([N+](=O)[O-])cc32)C(OC(C)=O)C1OC(C)=O (stereo not given) : 48.2 µM (inactive)

For this compound ( CC(=O)/C(C)=N/NC(=O)c1ccccc1O ), measured GI50 is 69.5 µM (inactive)

Consider CC1(C)CCc2c(cc3c(c2O)CCC(C)(C)O3)O1 . Its measured GI50 is > 100 µM (inactive)

----------
System: SK-OV-3
method description: NCI tumour cell line growth inhibition, 48 h
Activity calls are given as the source filed them. Cut-off read from the data, not from the text of the source: active = GI50 up to about 1.1 µM and inactive = higher.
measure name: GI50

Examples with answers:
Cc1cc(Cl)ccc1N1C(=O)C(=O)C(c2nc3ccccc3o2)C(=O)C1=O; > 100 µM (inactive)
CC(=O)OC(=O)O/C=C\CCl; > 100 µM (inactive)
O=C1NC(Cc2ccccc2)C(=O)N2CCCC12 (stereo unspecified); > 100 µM (inactive)
CCOC(=O)C(CC#Cc1ccc(C#CCC(NC(C)=O)C(=O)OCC)cc1)NC(C)=O (stereo unspecified); > 100 µM (inactive)
C/C(=C\c1ccc(Cl)cc1)C(C)(C)C(=O)O; > 100 µM (inactive)

Let me check: O=C(NC(Cc1c[nH]cn1)C(=O)N1CCCC1)C1CCCC1 (stereo unspecified) , system SK-OV-3, measured GI50 is > 100 µM (inactive)

Bench note, SK-OV-3: O=C(c1ccccc1)N1CCC(Nc2nccs2)O1 (stereo unspecified) , GI50 reads > 10 µM (inactive)

Reported GI50 (SK-OV-3) for entry O=S1(=O)OCCOS(=O)(=O)C1I is > 100 µM (inactive)

GI50 of COC(=O)C1=C(C)NC2(C)OC(C)(O)C(C(C)=O)C12C(C)=O (stereo unspecified) , assay on SK-OV-3, is 28.5 µM (inactive)

GI50 on SK-OV-3 for CC[N+]1(C)CCC(O)(/C=C/c2ccc(OC)cc2)C(C(=O)/C=C/c2ccc(OC)cc2)C1 (stereo unspecified) is 19.1 µM (inactive)

Lab entry: SK-OV-3 assay, compound O=c1c2c3c(sc2nc2n1N=CN(c1ccc(Cl)cc1)C2)CCCC3 , GI50 = > 100 µM (inactive)

----------
Tested on: RXF 393
method description: NCI tumour cell line growth inhibition, 48 h
Active and inactive are the calls of the source. Rule as the data show it: active = GI50 up to about 1.1 µM and inactive = higher.
Assign a class; possible classes are YES = active, NO = inactive

Solved cases below.
N#CC(/C(=N\NC(N)=S)C(=O)NC1C2CC3CC(C2)CC1C3)c1ccc(Cl)cc1 (stereo not drawn); NO
CCCCn1c2c(n(CCCC)c1=S)-c1c(n(CCCC)c(=S)n1CCCC)SSSS2; NO
CCOC(=O)c1cc(C)nc2c1c(=O)n(-c1ccccc1)c(=O)n2CCCCN1CCN(c2ncccn2)CC1; NO
CC1(C)CCOC(=O)C(Cl)CC1Cl (stereo not drawn); NO

Which result was noted for this molecule in the test: CC1CCC2(C(=O)O)CCC3(C)C(=CCC4C5(C)CC(O)C(O)C(C)(CO)C5C(O)CC43C)C2C1C (stereo not drawn)
NO
